# Assayed System: EGFRΔ19del/T790M/C797S (Homo sapiens, UniProt P00533, T790M/C797S, form not given)
# Sequence (P00533 with tags, fused parts or gaps DEL746-750/T790M/C797S, form open): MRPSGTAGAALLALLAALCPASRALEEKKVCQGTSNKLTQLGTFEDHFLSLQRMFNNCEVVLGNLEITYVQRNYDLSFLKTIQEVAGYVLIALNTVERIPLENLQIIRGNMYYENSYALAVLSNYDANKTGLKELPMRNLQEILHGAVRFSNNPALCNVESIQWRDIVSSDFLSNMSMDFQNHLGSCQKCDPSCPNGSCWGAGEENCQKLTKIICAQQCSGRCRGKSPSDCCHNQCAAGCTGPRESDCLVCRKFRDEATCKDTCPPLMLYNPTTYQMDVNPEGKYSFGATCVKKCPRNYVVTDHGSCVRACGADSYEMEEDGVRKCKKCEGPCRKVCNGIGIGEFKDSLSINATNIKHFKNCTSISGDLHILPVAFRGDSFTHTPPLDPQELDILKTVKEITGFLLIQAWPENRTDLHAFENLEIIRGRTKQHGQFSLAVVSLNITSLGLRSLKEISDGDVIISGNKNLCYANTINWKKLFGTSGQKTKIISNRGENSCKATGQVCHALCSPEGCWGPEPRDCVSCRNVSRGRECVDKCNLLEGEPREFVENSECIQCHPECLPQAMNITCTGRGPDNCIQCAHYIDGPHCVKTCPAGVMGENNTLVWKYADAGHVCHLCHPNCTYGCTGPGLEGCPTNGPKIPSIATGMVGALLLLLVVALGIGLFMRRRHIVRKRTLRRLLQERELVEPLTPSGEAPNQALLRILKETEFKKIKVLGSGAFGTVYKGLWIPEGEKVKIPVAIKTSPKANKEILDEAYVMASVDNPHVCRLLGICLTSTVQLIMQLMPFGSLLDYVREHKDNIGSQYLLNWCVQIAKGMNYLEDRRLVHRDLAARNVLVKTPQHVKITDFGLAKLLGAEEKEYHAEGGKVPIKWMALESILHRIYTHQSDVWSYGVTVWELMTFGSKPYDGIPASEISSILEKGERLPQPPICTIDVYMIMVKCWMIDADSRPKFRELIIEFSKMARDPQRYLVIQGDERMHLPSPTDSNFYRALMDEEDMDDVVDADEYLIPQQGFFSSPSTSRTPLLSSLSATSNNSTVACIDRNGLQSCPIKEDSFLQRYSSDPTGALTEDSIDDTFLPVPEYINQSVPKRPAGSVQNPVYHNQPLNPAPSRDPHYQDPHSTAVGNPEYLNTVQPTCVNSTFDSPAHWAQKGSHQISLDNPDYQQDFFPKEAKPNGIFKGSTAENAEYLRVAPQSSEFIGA
# Experiment: EGFR Δ19del/T790M/C797S kinase test (mobility variation analysis, Caliper EZ Reader)
# Conditions Used: kinase enzymatic activity, Table 1
# Experimental: Mobility variation analysis was performed to determine the affinity of the compound for EGFRΔ19del/T790M/C797S, EGFR WT and IGF1R. The enzymatic reaction scheme is as follows: 1. Prepare 1*kinase buffer as follows. 3. […] Prepare 2.5-fold final concentration of kinase solution with 1×Kinase buffer. 4. […] 10. Read conversion rate with Caliper EZ Reader. […]
Value Type: IC50 (nM)

// solved cases for IC50 follow
- CCc1cc(Nc2ncc(Cl)c(Nc3ccc(-c4ccc5ocnc5c4)cc3P(C)(C)=O)n2)c(OC)cc1N1CCC(N2CCN(C)CC2)CC1 [Compound 17]: 0.7
- CCc1cc(Nc2ncc(Cl)c(Nc3ccc(-c4ccc[nH]c4=O)cc3P(C)(C)=O)n2)c(OC)cc1N1CCC(N2CCN(C)CC2)CC1 [Compound K-092]: 0.8
- CCc1cc(Nc2ncc(Br)c(Nc3ccc(-c4cn(C)c5ncccc45)cc3P(C)(C)=O)n2)c(OC)cc1N1CCC(N2CCN(C)CC2)CC1 [Compound 46]: 1.7
- CCOc1cnc(-c2ccc(Nc3nc(Nc4cc(CC)c(N5CCC(N6CCN(C)CC6)CC5)cc4OC)ncc3Br)c(P(C)(C)=O)c2)nc1 [Compound 75]: 0.5
- CCc1cnc(-c2ccc(Nc3nc(Nc4cc(CC)c(N5CCC(N6CCN(C)CC6)CC5)cc4OC)ncc3Br)c(P(C)(C)=O)c2)nc1 [Compound 70]: 0.9
- CCc1cc(Nc2ncc(Br)c(Nc3ccc(-c4cncc(OC)n4)cc3P(C)(C)=O)n2)c(OC)cc1N1CCC(N2CCN(C)CC2)CC1 [Compound 59]: 1.3

I. COc1cc(N2CCOCC2)c(C#N)cc1Nc1ncc(Br)c(Nc2ccc(-c3nccs3)cc2P(C)(C)=O)n1 [Compound K-027]
II. CCc1cc(Nc2ncc(Br)c(Nc3ccc(-c4ccc(N(C)C)nn4)cc3P(C)(C)=O)n2)c(OC)cc1N1CCC(N2CCN(C)CC2)CC1 [Compound 37]
III. CCc1cc(Nc2ncc(Br)c(Nc3ccc(-c4ncc(OC)cn4)cc3P(C)(C)=O)n2)c(OC)cc1N1CCC(N2CCN(C)CC2)CC1 [Compound 30]
IV. CCc1cc(Nc2ncc(Br)c(Nc3ccc(-c4cc(C)n(C)n4)cc3P(C)(C)=O)n2)c(OC)cc1N1CCC(N2CCN(C)CC2)CC1 [Compound K-066]
INPUT: Exam item: list the entries in increasing order of IC50. # respond with the labels, arranged in the requested order
OUTPUT: III, II, I, IV
(III: 0.2 nM, II: 0.3 nM, I: 0.6 nM, IV: 1.1 nM)

====

pIC50: −log10 of the molar value.
In what follows, each item is paired with its pIC50 for EGFR WT (Homo sapiens).
Value Type: pIC50

// solved cases for pIC50 follow
• CCc1cc(Nc2ncc(Br)c(Nc3ccc(-c4ccccc4C)cc3P(C)(C)=O)n2)c(OC)cc1N1CCC(N2CCOCC2)CC1 [Compound K-049] = 7.50
• CCc1cc(Nc2ncc(Br)c(Nc3ccc(-c4c(C)cnn4C)cc3P(C)(C)=O)n2)c(OC)cc1N1CCC(N2CCN(C)CC2)CC1 [Compound 54] = 7.37
• COc1cc(N2CCC(N3CCN(C)CC3)CC2)c(C)cc1Nc1ncc(Br)c(Nc2ccc(-c3cnn(C)n3)cc2P(C)(C)=O)n1 [Compound K-008] = 7.82
• CCc1cc(Nc2ncc(Cl)c(Nc3ccc(-c4cnc(C)nc4)cc3P(C)(C)=O)n2)c(OC)cc1N1CCC(N2CCN(C)CC2)CC1 [Compound 24] = 7.17
• C#Cc1cnn(-c2ccc(Nc3nc(Nc4cc(CC)c(N5CCC(N6CCN(C)CC6)CC5)cc4OC)ncc3Br)c(P(C)(C)=O)c2)c1 [Compound K-009] = 7.68
• COc1cc(N2CCN(C)CC2)c(C)cc1Nc1ncc(Br)c(Nc2ccc(-c3nccs3)cc2P(C)(C)=O)n1 [Compound K-029] = 7.22
• CCc1cc(Nc2ncc(Br)c(Nc3ccc(-c4cn(C)c5cccnc45)cc3P(C)(C)=O)n2)c(OC)cc1N1CCC(N2CCN(C)CC2)CC1 [Compound 42] = 7.06
• CCc1cc(Nc2ncc(Br)c(Nc3ccc(-c4cccc(C#N)c4)cc3P(C)(C)=O)n2)c(OC)cc1N1CCC(N2CCN(C)CC2)CC1 [Compound 5] = 7.90

a. CCc1cc(Nc2ncc(Cl)c(Nc3ccc(-c4nn(C)cc4C#N)cc3P(C)(C)=O)n2)c(OC)cc1N1CCC(N2CCN(C)CC2)CC1 [Compound 57]
b. CCc1cc(Nc2ncc(Br)c(Nc3ccc(-c4nc(Cl)cs4)cc3P(C)(C)=O)n2)c(OC)cc1N1CCC(N2CCN(C)CC2)CC1 [Compound K-073]
INPUT: Short answer wanted: higher pIC50, a or b ? Answer by quoting the chosen item's label.
OUTPUT: a

P. CCc1cc(Nc2ncc(Br)c(Nc3ccc(-c4cnc(C)cn4)cc3P(C)(C)=O)n2)c(OC)cc1N1CCC(N2CCN(C)CC2)CC1 [Compound 80]
Q. COc1cc(Nc2ncc(Br)c(Nc3ccc(-c4cnn(C)c4)cc3P(C)(C)=O)n2)c(C)cc1N1CCOCC1 [Compound K-030]
INPUT: Param metric = pIC50; output whichever of P , Q has the minimum value. Answer by quoting the chosen item's label.
OUTPUT: P

Where these numbers come from: patent US20220402948A1
